# Tested on: thrombin
# Experimental details: Thrombin time test
# Format: biochemical
# Test parameters: 100 μM; without conjugate 13.4
Peptide text beside a SMILES is read from it. * marks the point of attachment. Tos = Cc1ccc(S(=O)(=O)*)cc1; CH2Cl = ClC*

Compound	TT
Cc1ccc(S(=O)(=O)N[C@@H](C)C(=O)N[C@H](C(=O)N[C@@H](CC(C)C)C(=O)N[C@@H](CC(=O)O)C(=O)N2CCC[C@H]2C(=O)N[C@@H](CCCNC(=N)N)C(=O)CCl)[C@@H](C)O)cc1 [6AA, tosyl-ATLDPR-CK] (Tos-ATLDPR-CH2Cl)	> 80 s
Cc1ccc(S(=O)(=O)N[C@@H](CC(C)C)C(=O)N[C@@H](CC(=O)O)C(=O)N2CCC[C@H]2C(=O)N[C@@H](CCCNC(=N)N)C(=O)CCl)cc1 [4AA, tosyl-LDPR-CK] (Tos-LDPR-CH2Cl)	> 80 s
Cc1ccc(S(=O)(=O)N[C@H](C(=O)N[C@@H](CC(C)C)C(=O)N[C@@H](CC(=O)O)C(=O)N2CCC[C@H]2C(=O)N[C@@H](CCCNC(=N)N)C(=O)CCl)[C@@H](C)O)cc1 [5AA, tosyl-TLDPR-CK] (Tos-TLDPR-CH2Cl)	> 80 s

----------
# Tested on: thrombin
# Experimental details: Thrombin time test
# Assay type: biochemical
# Test parameters: 1 μM; most potent (1) to least potent (5)
Peptide text beside a SMILES is read from it. * marks the point of attachment. Tos = Cc1ccc(S(=O)(=O)*)cc1; CH2Cl = ClC*
Quantity measured: Potency score in TT test

Molecule	System	Quantity measured	Quantitative readout
Cc1ccc(S(=O)(=O)N[C@@H](C)C(=O)N[C@H](C(=O)N[C@@H](CC(C)C)C(=O)N[C@@H](CC(=O)O)C(=O)N2CCC[C@H]2C(=O)N[C@@H](CCCNC(=N)N)C(=O)CCl)[C@@H](C)O)cc1 [6AA, tosyl-ATLDPR-CK] (Tos-ATLDPR-CH2Cl)	thrombin	Potency score in TT test	3
Cc1ccc(S(=O)(=O)N[C@@H](CC(C)C)C(=O)N[C@@H](CC(=O)O)C(=O)N2CCC[C@H]2C(=O)N[C@@H](CCCNC(=N)N)C(=O)CCl)cc1 [4AA, tosyl-LDPR-CK] (Tos-LDPR-CH2Cl)	thrombin	Potency score in TT test	5
Cc1ccc(S(=O)(=O)N[C@H](C(=O)N[C@@H](CC(C)C)C(=O)N[C@@H](CC(=O)O)C(=O)N2CCC[C@H]2C(=O)N[C@@H](CCCNC(=N)N)C(=O)CCl)[C@@H](C)O)cc1 [5AA, tosyl-TLDPR-CK] (Tos-TLDPR-CH2Cl)	thrombin	Potency score in TT test	4
Cc1ccc(S(=O)(=O)N[C@@H](CC(N)=O)C(=O)N[C@@H](C)C(=O)N[C@H](C(=O)N[C@@H](CC(C)C)C(=O)N[C@@H](CC(=O)O)C(=O)N2CCC[C@H]2C(=O)N[C@@H](CCCNC(=N)N)C(=O)CCl)[C@@H](C)O)cc1 [7AA, tosyl-NATLDPR-CK] (Tos-NATLDPR-CH2Cl)	thrombin	Potency score in TT test	2
Cc1ccc(S(=O)(=O)N[C@@H](CC(=O)O)C(=O)N2CCC[C@H]2C(=O)N[C@@H](CCCNC(=N)N)C(=O)CCl)cc1 [3AA, tosyl-DPR-CK] (Tos-Asp-Pro-Arg-CH2Cl)	thrombin	Potency score in TT test	1

----------
Entries and their PT values follow.
# Test system: blood coagulation (prothrombin time)
# Experimental details: Prothrombin time test
# Format: biochemical
# Test parameters: 1 μM; without conjugate 11.5
Peptide text beside a SMILES is read from it. * marks the point of attachment. Tos = Cc1ccc(S(=O)(=O)*)cc1; CH2Cl = ClC*

Compound	PT [s]
Cc1ccc(S(=O)(=O)N[C@H](C(=O)N[C@@H](CC(C)C)C(=O)N[C@@H](CC(=O)O)C(=O)N2CCC[C@H]2C(=O)N[C@@H](CCCNC(=N)N)C(=O)CCl)[C@@H](C)O)cc1 [5AA, tosyl-TLDPR-CK] (Tos-TLDPR-CH2Cl)	11.5
Cc1ccc(S(=O)(=O)N[C@@H](CC(C)C)C(=O)N[C@@H](CC(=O)O)C(=O)N2CCC[C@H]2C(=O)N[C@@H](CCCNC(=N)N)C(=O)CCl)cc1 [4AA, tosyl-LDPR-CK] (Tos-LDPR-CH2Cl)	11.4

----------
# Tested on: blood coagulation (aPTT)
# Experimental details: Activated partial thromboplastin time test
# Type: biochemical
# Test parameters: 10 nM; without conjugate 30.5
Peptide text beside a SMILES is read from it. * marks the point of attachment. Tos = Cc1ccc(S(=O)(=O)*)cc1; CH2Cl = ClC*
Entries and their aPTT values follow.

Compound	System	aPTT [s]
Cc1ccc(S(=O)(=O)N[C@@H](CC(=O)O)C(=O)N2CCC[C@H]2C(=O)N[C@@H](CCCNC(=N)N)C(=O)CCl)cc1 [3AA, tosyl-DPR-CK] (Tos-Asp-Pro-Arg-CH2Cl)	blood coagulation (aPTT)	30
Cc1ccc(S(=O)(=O)N[C@H](C(=O)N[C@@H](CC(C)C)C(=O)N[C@@H](CC(=O)O)C(=O)N2CCC[C@H]2C(=O)N[C@@H](CCCNC(=N)N)C(=O)CCl)[C@@H](C)O)cc1 [5AA, tosyl-TLDPR-CK] (Tos-TLDPR-CH2Cl)	blood coagulation (aPTT)	30.1
Cc1ccc(S(=O)(=O)N[C@@H](CC(N)=O)C(=O)N[C@@H](C)C(=O)N[C@H](C(=O)N[C@@H](CC(C)C)C(=O)N[C@@H](CC(=O)O)C(=O)N2CCC[C@H]2C(=O)N[C@@H](CCCNC(=N)N)C(=O)CCl)[C@@H](C)O)cc1 [7AA, tosyl-NATLDPR-CK] (Tos-NATLDPR-CH2Cl)	blood coagulation (aPTT)	29.9
Cc1ccc(S(=O)(=O)N[C@@H](C)C(=O)N[C@H](C(=O)N[C@@H](CC(C)C)C(=O)N[C@@H](CC(=O)O)C(=O)N2CCC[C@H]2C(=O)N[C@@H](CCCNC(=N)N)C(=O)CCl)[C@@H](C)O)cc1 [6AA, tosyl-ATLDPR-CK] (Tos-ATLDPR-CH2Cl)	blood coagulation (aPTT)	30
Cc1ccc(S(=O)(=O)N[C@@H](CC(C)C)C(=O)N[C@@H](CC(=O)O)C(=O)N2CCC[C@H]2C(=O)N[C@@H](CCCNC(=N)N)C(=O)CCl)cc1 [4AA, tosyl-LDPR-CK] (Tos-LDPR-CH2Cl)	blood coagulation (aPTT)	30.8

----------
Entries and their aPTT values follow.
# System: blood coagulation (aPTT)
# Experimental details: Activated partial thromboplastin time test
# Assay type: biochemical
# Test parameters: 1 μM; without conjugate 30.5
Peptide text beside a SMILES is read from it. * marks the point of attachment. Tos = Cc1ccc(S(=O)(=O)*)cc1; CH2Cl = ClC*
Quantity measured: aPTT (s)

Compound	Quantitative readout
Cc1ccc(S(=O)(=O)N[C@@H](CC(N)=O)C(=O)N[C@@H](C)C(=O)N[C@H](C(=O)N[C@@H](CC(C)C)C(=O)N[C@@H](CC(=O)O)C(=O)N2CCC[C@H]2C(=O)N[C@@H](CCCNC(=N)N)C(=O)CCl)[C@@H](C)O)cc1 [7AA, tosyl-NATLDPR-CK] (Tos-NATLDPR-CH2Cl)	30.7
Cc1ccc(S(=O)(=O)N[C@@H](CC(C)C)C(=O)N[C@@H](CC(=O)O)C(=O)N2CCC[C@H]2C(=O)N[C@@H](CCCNC(=N)N)C(=O)CCl)cc1 [4AA, tosyl-LDPR-CK] (Tos-LDPR-CH2Cl)	30.9
Cc1ccc(S(=O)(=O)N[C@H](C(=O)N[C@@H](CC(C)C)C(=O)N[C@@H](CC(=O)O)C(=O)N2CCC[C@H]2C(=O)N[C@@H](CCCNC(=N)N)C(=O)CCl)[C@@H](C)O)cc1 [5AA, tosyl-TLDPR-CK] (Tos-TLDPR-CH2Cl)	30.5
Cc1ccc(S(=O)(=O)N[C@@H](C)C(=O)N[C@H](C(=O)N[C@@H](CC(C)C)C(=O)N[C@@H](CC(=O)O)C(=O)N2CCC[C@H]2C(=O)N[C@@H](CCCNC(=N)N)C(=O)CCl)[C@@H](C)O)cc1 [6AA, tosyl-ATLDPR-CK] (Tos-ATLDPR-CH2Cl)	30.6
Cc1ccc(S(=O)(=O)N[C@@H](CC(=O)O)C(=O)N2CCC[C@H]2C(=O)N[C@@H](CCCNC(=N)N)C(=O)CCl)cc1 [3AA, tosyl-DPR-CK] (Tos-Asp-Pro-Arg-CH2Cl)	38.1

----------
Entries and their PT values follow.
# Tested on: blood coagulation (prothrombin time)
# Experimental details: Prothrombin time test
# Assay type: biochemical
# Test parameters: 10 nM; without conjugate 11.5
Peptide text beside a SMILES is read from it. * marks the point of attachment. Tos = Cc1ccc(S(=O)(=O)*)cc1; CH2Cl = ClC*

Molecule	System	PT [s]
Cc1ccc(S(=O)(=O)N[C@@H](CC(N)=O)C(=O)N[C@@H](C)C(=O)N[C@H](C(=O)N[C@@H](CC(C)C)C(=O)N[C@@H](CC(=O)O)C(=O)N2CCC[C@H]2C(=O)N[C@@H](CCCNC(=N)N)C(=O)CCl)[C@@H](C)O)cc1 [7AA, tosyl-NATLDPR-CK] (Tos-NATLDPR-CH2Cl)	blood coagulation (prothrombin time)	11.5
Cc1ccc(S(=O)(=O)N[C@@H](CC(C)C)C(=O)N[C@@H](CC(=O)O)C(=O)N2CCC[C@H]2C(=O)N[C@@H](CCCNC(=N)N)C(=O)CCl)cc1 [4AA, tosyl-LDPR-CK] (Tos-LDPR-CH2Cl)	blood coagulation (prothrombin time)	11.5
Cc1ccc(S(=O)(=O)N[C@@H](C)C(=O)N[C@H](C(=O)N[C@@H](CC(C)C)C(=O)N[C@@H](CC(=O)O)C(=O)N2CCC[C@H]2C(=O)N[C@@H](CCCNC(=N)N)C(=O)CCl)[C@@H](C)O)cc1 [6AA, tosyl-ATLDPR-CK] (Tos-ATLDPR-CH2Cl)	blood coagulation (prothrombin time)	11.5
Cc1ccc(S(=O)(=O)N[C@@H](CC(=O)O)C(=O)N2CCC[C@H]2C(=O)N[C@@H](CCCNC(=N)N)C(=O)CCl)cc1 [3AA, tosyl-DPR-CK] (Tos-Asp-Pro-Arg-CH2Cl)	blood coagulation (prothrombin time)	11.5
Cc1ccc(S(=O)(=O)N[C@H](C(=O)N[C@@H](CC(C)C)C(=O)N[C@@H](CC(=O)O)C(=O)N2CCC[C@H]2C(=O)N[C@@H](CCCNC(=N)N)C(=O)CCl)[C@@H](C)O)cc1 [5AA, tosyl-TLDPR-CK] (Tos-TLDPR-CH2Cl)	blood coagulation (prothrombin time)	12.1
